# experimentSummary: Aqueous solubility at pH 7.4
# Assay type: physicochemical
# assaySetup: buffer
measuredProperty: solubility (µg/mL)
// units = µg/mL; emit number, no label

Please review the following examples before continuing.
compound	solubility, µg/mL
O=C1Nc2ccccc2[C@]12C[C@H]2c1ccc2c(/C=C/c3ccncc3)n[nH]c2c1 (relative stereo)	0.4
O=C1Nc2ccccc2[C@]12C[C@H]2c1ccc2cn[nH]c2c1 (relative stereo)	8
O=C1Nc2ccccc2/C1=C/c1ccc2cn[nH]c2c1	0.7
COc1ccc2c(c1)[C@]1(C[C@H]1c1ccc3c(/C=C/c4ccc(N5CCN(C)CC5)nc4)n[nH]c3c1)C(=O)N2 (relative stereo)	0.19
O=C1Nc2ccccc2/C1=C\c1ccc2c(/C=C/c3ccncc3)n[nH]c2c1	0.21

// moving on: another record for solubility
Query: Can you look up the measured solubility of CN(C)Cc1ccc(/C=C/c2n[nH]c3cc([C@@H]4C[C@@]45C(=O)Nc4ccccc45)ccc23)cc1 (relative stereo) for me?
Response: 1.7

----------
# experimentSummary: Cmax in SCID mouse at 50 mg/kg, ip after 8 hrs by LCMS/MS method
# Assay type: ADME, organism-based
# Design: dose 50 mg/kg, route intraperitoneal
# assaySetup: in vivo
Cmax vs 200 ng/mL: at or above is 1 (yes), below is 0 (no).

Please review the entries below; each comes with its answer.
compound	labelClass
O=C1Nc2ccccc2/C1=C/c1ccc2cn[nH]c2c1	0 (no)
COc1ccc2c(c1)/C(=C\c1ccc3c(/C=C/c4ccc(N5CCN(C)CC5)nc4)n[nH]c3c1)C(=O)N2	0 (no)
CN(C)Cc1ccc(/C=C/c2n[nH]c3cc(/C=C4/C(=O)Nc5ccccc54)ccc23)cc1	1 (yes)
O=C1Nc2ccccc2[C@]12C[C@H]2c1ccc2cn[nH]c2c1 (relative stereo)	1 (yes)
O=C1Nc2ccccc2[C@]12C[C@H]2c1ccc2c(/C=C/c3ccncc3)n[nH]c2c1 (relative stereo)	1 (yes)

Query: # bool: Cmax of "O=C1Nc2ccccc2/C1=C\c1ccc2c(/C=C/c3ccncc3)n[nH]c2c1" >= 200 ng/mL
Response: 0 (no)

Query: Thanks! And CN(C)Cc1ccc(/C=C/c2n[nH]c3cc([C@@H]4C[C@@]45C(=O)Nc4ccccc45)ccc23)cc1 (relative stereo) ?
Response: 1 (yes)

----------
# experimentSummary: Half life in mouse liver microsomes at 1 uM in presence of NADPH by LC-MS method
# Format: ADME
# reported half-life at 1 µM; entries follow

Check out these entries, answers already filled in.
compound	testResult
O=C1Nc2ccccc2[C@]12C[C@H]2c1ccc2cn[nH]c2c1 (relative stereo)	49 min
O=C1Nc2ccccc2/C1=C/c1ccc2cn[nH]c2c1	5 min

Query: Given "O=C1Nc2ccccc2/C1=C\c1ccc2c(/C=C/c3ccncc3)n[nH]c2c1" , state its recorded half-life at 1 µM.
Response: 6 min

Query: Note, next up: "COc1ccc2c(c1)/C(=C\c1ccc3c(/C=C/c4ccc(N5CCN(C)CC5)nc4)n[nH]c3c1)C(=O)N2"
Response: 2 min

Query: Consider next the compound COc1ccc2c(c1)[C@]1(C[C@H]1c1ccc3c(/C=C/c4ccc(N5CCN(C)CC5)nc4)n[nH]c3c1)C(=O)N2 (relative stereo) in the same way.
Response: 9 min

Query: Try the compound "CN(C)Cc1ccc(/C=C/c2n[nH]c3cc(/C=C4/C(=O)Nc5ccccc54)ccc23)cc1"
Response: 7 min

Query: Check O=C1Nc2ccccc2[C@]12C[C@H]2c1ccc2c(/C=C/c3ccncc3)n[nH]c2c1 (relative stereo) too.
Response: 18 min

Query: And for CN(C)Cc1ccc(/C=C/c2n[nH]c3cc([C@@H]4C[C@@]45C(=O)Nc4ccccc45)ccc23)cc1 (relative stereo) ?
Response: 13 min

----------
# measuredOn: Receptor-type tyrosine-protein kinase FLT3 (Homo sapiens)
# Sequence (P36888 whole entry): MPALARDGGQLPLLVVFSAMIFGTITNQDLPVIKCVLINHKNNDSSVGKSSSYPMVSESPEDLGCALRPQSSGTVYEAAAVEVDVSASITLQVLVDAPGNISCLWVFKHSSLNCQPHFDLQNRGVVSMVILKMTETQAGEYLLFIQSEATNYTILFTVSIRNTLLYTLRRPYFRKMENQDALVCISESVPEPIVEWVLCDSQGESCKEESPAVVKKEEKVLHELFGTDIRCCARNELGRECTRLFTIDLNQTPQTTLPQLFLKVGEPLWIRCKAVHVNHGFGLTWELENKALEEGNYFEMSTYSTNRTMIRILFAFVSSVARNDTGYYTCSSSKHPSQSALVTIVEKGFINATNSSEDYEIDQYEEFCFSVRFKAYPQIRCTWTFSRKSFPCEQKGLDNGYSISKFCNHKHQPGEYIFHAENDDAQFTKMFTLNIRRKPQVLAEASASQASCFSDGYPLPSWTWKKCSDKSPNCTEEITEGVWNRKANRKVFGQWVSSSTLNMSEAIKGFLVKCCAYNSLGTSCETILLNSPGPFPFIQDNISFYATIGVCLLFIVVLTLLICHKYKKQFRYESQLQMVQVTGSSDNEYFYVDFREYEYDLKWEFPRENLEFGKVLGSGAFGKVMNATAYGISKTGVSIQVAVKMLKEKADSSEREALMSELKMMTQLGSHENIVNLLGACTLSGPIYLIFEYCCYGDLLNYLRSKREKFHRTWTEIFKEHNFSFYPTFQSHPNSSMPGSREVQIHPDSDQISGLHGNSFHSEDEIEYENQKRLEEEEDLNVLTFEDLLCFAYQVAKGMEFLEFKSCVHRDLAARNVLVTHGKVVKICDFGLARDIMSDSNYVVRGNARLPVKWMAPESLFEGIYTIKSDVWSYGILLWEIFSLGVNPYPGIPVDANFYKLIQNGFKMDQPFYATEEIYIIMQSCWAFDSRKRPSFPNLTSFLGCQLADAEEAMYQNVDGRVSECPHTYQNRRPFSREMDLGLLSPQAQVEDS
measuredProperty: IC50 (nM)
Field format: number, assumed nM, no unit text.

molecule	unitOfMeasurement	testResult
O=C1Nc2ccccc2[C@]12C[C@H]2c1ccc2c(/C=C/c3ccncc3)n[nH]c2c1 (relative stereo)	nM	33

Query: GET /values?readout=IC50&item= CN(C)Cc1ccc(/C=C/c2n[nH]c3cc([C@@H]4C[C@@]45C(=O)Nc4ccc(OC(F)F)cc45)ccc23)cc1 (relative stereo)
Response: 32

Query: Moving on to the next molecule: Cc1ccc(/C=C/c2n[nH]c3cc([C@@H]4C[C@@]45C(=O)Nc4ccccc45)ccc23)c(C)n1 (relative stereo)
Response: 59

----------
# measuredOn: Cytochrome P450 2C9 (Homo sapiens, UniProt P11712)
# Sequence (P11712 whole entry): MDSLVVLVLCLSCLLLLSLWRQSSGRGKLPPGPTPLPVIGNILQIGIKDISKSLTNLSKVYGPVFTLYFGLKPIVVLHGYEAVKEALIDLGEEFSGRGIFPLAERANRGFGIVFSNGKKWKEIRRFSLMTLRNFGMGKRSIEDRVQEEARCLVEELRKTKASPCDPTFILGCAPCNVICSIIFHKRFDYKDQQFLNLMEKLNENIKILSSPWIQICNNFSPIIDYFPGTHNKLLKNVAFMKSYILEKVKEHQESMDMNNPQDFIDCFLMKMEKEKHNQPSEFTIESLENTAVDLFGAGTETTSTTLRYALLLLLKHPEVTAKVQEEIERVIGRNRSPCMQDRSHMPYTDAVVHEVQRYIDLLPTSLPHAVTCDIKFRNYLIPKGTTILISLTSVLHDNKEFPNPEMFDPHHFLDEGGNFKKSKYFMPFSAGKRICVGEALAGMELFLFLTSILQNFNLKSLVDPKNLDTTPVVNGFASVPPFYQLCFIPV
measuredProperty: IC50 (µM)
Please give a number only; it is taken to be in µM.

compound	measuredOn	IC50, µM
COc1ccc2c(c1)/C(=C\c1ccc3c(/C=C/c4ccc(N5CCN(C)CC5)nc4)n[nH]c3c1)C(=O)N2	Cytochrome P450 2C9 (Homo sapiens, UniProt P11712)	1.6
O=C1Nc2ccccc2[C@]12C[C@H]2c1ccc2c(/C=C/c3cccnc3)n[nH]c2c1 (relative stereo)	Cytochrome P450 2C9 (Homo sapiens, UniProt P11712)	0.32
COc1ccc2c(c1)[C@]1(C[C@H]1c1ccc3c(/C=C/c4ccc(N5CCN(C)CC5)nc4)n[nH]c3c1)C(=O)N2 (relative stereo)	Cytochrome P450 2C9 (Homo sapiens, UniProt P11712)	1.6

# context switch: different compound, same IC50
Query: Give its IC50 value. Item: "CN(C)Cc1ccc(/C=C/c2n[nH]c3cc(/C=C4/C(=O)Nc5ccccc54)ccc23)cc1"
Response: 1.4

----------
# experimentSummary: Protein binding in plasma (unknown origin)
# Format: ADME, cell-free
# assaySetup: read-out: PPB (converted)
Examples of compounds with documented fraction unbound follow.
Returns: the value as a bare number; no unit string appended.

Below: 5 compounds and their reported fraction unbound.
compound	fraction unbound
O=C1Nc2ccccc2[C@]12C[C@H]2c1ccc2c(/C=C/c3ccncc3)n[nH]c2c1 (relative stereo)	0.045
O=C1Nc2ccccc2/C1=C\c1ccc2c(/C=C/c3ccncc3)n[nH]c2c1	0.011
CN(C)Cc1ccc(/C=C/c2n[nH]c3cc(/C=C4/C(=O)Nc5ccccc54)ccc23)cc1	0.016
O=C1Nc2ccccc2[C@]12C[C@H]2c1ccc2cn[nH]c2c1 (relative stereo)	0.17
COc1ccc2c(c1)/C(=C\c1ccc3c(/C=C/c4ccc(N5CCN(C)CC5)nc4)n[nH]c3c1)C(=O)N2	0.009

Query: Recorded fraction unbound of CN(C)Cc1ccc(/C=C/c2n[nH]c3cc([C@@H]4C[C@@]45C(=O)Nc4ccccc45)ccc23)cc1 (relative stereo) , please.
Response: 0.053

----------
# experimentSummary: Half life in human liver microsomes at 1 uM in presence of NADPH by LC-MS method
# Format: ADME
Entries and their half-life at 1 µM values follow.

Previously resolved entries follow.
compound	half-life at 1 µM
O=C1Nc2ccccc2[C@]12C[C@H]2c1ccc2cn[nH]c2c1 (relative stereo)	> 60 min
O=C1Nc2ccccc2/C1=C/c1ccc2cn[nH]c2c1	54 min
O=C1Nc2ccccc2/C1=C\c1ccc2c(/C=C/c3ccncc3)n[nH]c2c1	29 min
CN(C)Cc1ccc(/C=C/c2n[nH]c3cc(/C=C4/C(=O)Nc5ccccc54)ccc23)cc1	40 min
O=C1Nc2ccccc2[C@]12C[C@H]2c1ccc2c(/C=C/c3ccncc3)n[nH]c2c1 (relative stereo)	> 60 min

Query: Item CN(C)Cc1ccc(/C=C/c2n[nH]c3cc([C@@H]4C[C@@]45C(=O)Nc4ccccc45)ccc23)cc1 (relative stereo) has what recorded half-life at 1 µM?
Response: > 60 min

Query: Proceed to COc1ccc2c(c1)[C@]1(C[C@H]1c1ccc3c(/C=C/c4ccc(N5CCN(C)CC5)nc4)n[nH]c3c1)C(=O)N2 (relative stereo)
Response: 16 min

Query: Also check "COc1ccc2c(c1)/C(=C\c1ccc3c(/C=C/c4ccc(N5CCN(C)CC5)nc4)n[nH]c3c1)C(=O)N2"
Response: 14 min
